Item-by-item account of amyloid nucleation score
# MEASUREMENT PROTOCOL: amyloid nucleation score (Sup35N fusion, yeast selection) (log enrichment); library NNK2; higher = more nucleation; inactive = no reads after selection;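 also: zero at mode of non-aggregating sequences after 7 days selection at 30°C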
Give only the figure.

Known amyloid nucleation score results, listed for orientation:
YSLWLVVCYLLVCWNINCGT = 0.366
GMSYGESWIGTNLAGRVRAL = 1.29
FVNQPKVRYLVSCYFMANLP = 0.016
WYYFYLFDACLSVSCWAIWY = -0.283
MFSNFLIRKEGRKKVAMVKK = -1.04
HRDHGTISLHRKCSYVALAS = 1.14
LYMILNGYTLGSCFTVRDSF = 4.99

Continue with the sequence presented below.
For reference, reported amyloid nucleation score for GSASLCNSAERVYV stands at 0.681

----------
# MEASUREMENT PROTOCOL: amyloid nucleation score (Sup35N fusion, yeast selection) (log enrichment); library NNK2; higher = more nucleation; inactive = no reads after selection
Assign Met whenever amyloid nucleation score does not fall below 0.2; assign Not met whenever it does.

Example results:
NHSGRYGRRLILRLGFFGVG = Not met
RSICVYTIRYLFSH = Not met
MLSENADTRCLRMFVSDCQR = Met
SSRNASGYAWRVSNCVCVWG = Met
TVIGLLIIVVGSYDVCSNVW = Met

Problem: Given SFVWRWRRSEFHQVMRGGWP , state whether its amyloid nucleation score is at least 0.2.
Result: Met

Problem: Given DHLYMYWGAQ , state whether its amyloid nucleation score is at least 0.2.
Result: Met

Problem: Given EDKLFINLSRELVFGKIRPT , state whether its amyloid nucleation score is at least 0.2.
Result: Met

Problem: Given YGPICEYFQGCEALSWWSTC , state whether its amyloid nucleation score is at least 0.2.
Result: Met

----------
# MEASUREMENT PROTOCOL: amyloid nucleation score (Sup35N fusion, yeast selection) (log enrichment); library NNK3; higher = more nucleation; inactive = no reads after selection
ASSAY METRIC: amyloid nucleation score

Known amyloid nucleation score results, listed for orientation:
FLGIDAPDWSMVSKAIGRMG = inactive
LRSLLNQVMSYSMYILYNSQ = inactive
FFSCGDKLSFF = inactive
VSEMCIMSCTHIVGDCSWIR = inactive

For reference, reported amyloid nucleation score for NGVILYETSAWVTNVYSRFK stands at 1.2

For reference, reported amyloid nucleation score for PLSLDFVDVARFSGRTGCWF stands at inactive

----------
# MEASUREMENT PROTOCOL: amyloid nucleation score (Sup35N fusion, yeast selection) (log enrichment); library NNK3; higher = more nucleation; inactive = no reads after selection
ASSAY METRIC: amyloid nucleation score

Known amyloid nucleation score results, listed for orientation:
IANRKSGMKSTRKKESWH = inactive
WASYDGPEKRRNHTRYYISM = inactive
KFVQSIIGHWNLGHMPCGSM = 0.587
MTCTTCACDDICSNKLVLFH = inactive
YSIDMHVNVHGTYYLMSKWV = 1.73
VWLSRRIVCFRLLVQLNSA = inactive
LNYGSDLDSIYYSFTL = -0.896
PTNTNCLNVLG = inactive

Continue with the sequence presented below.
For reference, reported amyloid nucleation score for LVLSVWKLKLSGLALIFWYG stands at inactive
